Catalogue of molecules with associated AC50
- target: PKR K410E (Homo sapiens, UniProt P30613, K410E)
- Sequence (P30613 whole entry K410E): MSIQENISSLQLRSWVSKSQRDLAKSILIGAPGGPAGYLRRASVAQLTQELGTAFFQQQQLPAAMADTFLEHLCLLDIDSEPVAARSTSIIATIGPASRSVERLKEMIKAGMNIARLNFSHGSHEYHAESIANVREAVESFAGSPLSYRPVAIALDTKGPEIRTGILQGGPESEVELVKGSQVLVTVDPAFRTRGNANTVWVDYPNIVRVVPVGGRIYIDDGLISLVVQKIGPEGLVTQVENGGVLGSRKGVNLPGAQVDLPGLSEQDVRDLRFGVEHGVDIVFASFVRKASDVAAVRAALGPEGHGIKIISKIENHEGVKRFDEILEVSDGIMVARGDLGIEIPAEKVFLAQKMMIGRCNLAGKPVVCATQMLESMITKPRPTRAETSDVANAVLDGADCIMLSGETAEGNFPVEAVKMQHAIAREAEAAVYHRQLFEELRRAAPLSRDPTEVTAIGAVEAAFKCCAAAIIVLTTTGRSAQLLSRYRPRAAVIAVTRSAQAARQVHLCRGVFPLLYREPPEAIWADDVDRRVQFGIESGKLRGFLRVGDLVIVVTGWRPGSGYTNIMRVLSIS
- assay notes: PKR mutant assay (K410E), AC50, LDH/NADH-coupled, absorbance at 340 nm
- Type: biochemical
- run conditions: Table 2; enzyme assay

# molecule, property label, measured value
records = [
    ("CCc1nc2c(s1)c1cnn(Cc3cccc(OC)c3)c(=O)c1n2C", "AC50", "< 300 nM"),
]

Entry Cn1c2nc(Cc3ncsc3CO)sc2c2cnn(Cc3cccc4[nH]ncc34)c(=O)c21 has what AC50?
< 300 nM

Requested read-out: AC50. Entry: Cn1c2nc(C3(c4ccccc4)CC3)sc2c2cnn(Cc3cccc4[nH]ncc34)c(=O)c21
> 800 nM
